Quantity Name: pIC50
Interpret pIC50 as the negative base-10 log of the concentration measured in mol/L.

Prompt line: What measured pIC50 is associated with CC/C=C/[C@@H]1C[C@H](OC(=O)C(C)(C)CC)[C@@H]2[C@@H](CC[C@@H]3C[C@@H](O)CC(=O)O3)[C@@H](C)C=C[C@H]2C1 on 3-hydroxy-3-methylglutaryl-coenzyme A reductase (Rattus norvegicus)?
Response line: 7.82

Prompt line: Recall the recorded pIC50 for CCC(C)C(=O)O[C@H]1C[C@@H](C)C[C@@H]2C=C[C@H](C)[C@H](CCC(=O)C[C@@H](O)CC(=O)OC)[C@@H]12 (stereo not given in full) with 3-hydroxy-3-methylglutaryl-coenzyme A reductase (Rattus norvegicus) and state it.
Sequence (P51639 whole entry): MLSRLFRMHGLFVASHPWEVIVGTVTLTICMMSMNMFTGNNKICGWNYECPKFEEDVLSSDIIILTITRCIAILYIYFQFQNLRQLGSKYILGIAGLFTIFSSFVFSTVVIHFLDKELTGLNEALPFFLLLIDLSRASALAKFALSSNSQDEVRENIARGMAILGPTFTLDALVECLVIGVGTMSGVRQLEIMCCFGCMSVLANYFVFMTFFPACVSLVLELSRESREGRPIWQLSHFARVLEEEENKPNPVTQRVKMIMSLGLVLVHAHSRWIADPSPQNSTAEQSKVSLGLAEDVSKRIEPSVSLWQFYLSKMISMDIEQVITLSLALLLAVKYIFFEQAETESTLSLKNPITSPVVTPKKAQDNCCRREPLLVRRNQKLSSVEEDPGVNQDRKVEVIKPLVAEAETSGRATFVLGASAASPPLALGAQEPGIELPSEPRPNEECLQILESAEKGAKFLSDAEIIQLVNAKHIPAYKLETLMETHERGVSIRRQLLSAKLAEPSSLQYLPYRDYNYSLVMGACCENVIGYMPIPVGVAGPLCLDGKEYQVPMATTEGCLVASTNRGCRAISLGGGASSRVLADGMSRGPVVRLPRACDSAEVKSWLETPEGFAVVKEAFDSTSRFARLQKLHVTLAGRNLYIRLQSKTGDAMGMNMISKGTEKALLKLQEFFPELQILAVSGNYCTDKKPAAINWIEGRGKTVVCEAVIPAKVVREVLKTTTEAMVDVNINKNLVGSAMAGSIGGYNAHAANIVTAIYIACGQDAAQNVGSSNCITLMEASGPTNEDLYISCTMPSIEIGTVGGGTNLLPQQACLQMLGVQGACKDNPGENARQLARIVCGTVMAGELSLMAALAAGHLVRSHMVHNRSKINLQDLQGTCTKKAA
Response line: 7.10

Prompt line: Request body: readout pIC50, system 3-hydroxy-3-methylglutaryl-coenzyme A reductase (Rattus norvegicus), query CCC/C(C)=C/[C@@H]1C[C@H](OC(=O)[C@@H](C)CC)[C@@H]2[C@@H](CC[C@@H]3C[C@@H](O)CC(=O)O3)[C@@H](C)C=C[C@H]2C1 . Return the value.
Response line: 7.70

Prompt line: State its pIC50 on 3-hydroxy-3-methylglutaryl-coenzyme A reductase (Rattus norvegicus): C/C=C/[C@@H]1C[C@H](OC(=O)C(C)(C)CC)[C@@H]2[C@@H](/C=C/[C@@H]3C[C@@H](O)CC(=O)O3)[C@@H](C)C=C[C@H]2C1
Response line: 7.00

Prompt line: Which measured pIC50 belongs to CCC/C(C)=C/[C@@H]1C[C@H](OC(=O)C(C)(C)CC)[C@@H]2[C@@H](CC[C@@H]3C[C@@H](O)CC(=O)O3)[C@@H](C)C=C[C@H]2C1 , tested on 3-hydroxy-3-methylglutaryl-coenzyme A reductase (Rattus norvegicus)?
Response line: 8.10

Measured values drawn from ChEMBL document CHEMBL1126402 for this set.
